biological target: HLA-B*15:02; assay: IEDB peptide-MHC binding, purified MHC/direct/fluorescence; filed as Kd, often an IC50 or EC50 that approximates it; bounds were set here for any values at or beyond the usual limits of such assays; conditions: source organism: Dengue virus
quantity: Kd (nM)
Numeric answer only, unit nM assumed.

Quick note, Kd for SQHNYRPGY landed at 282

---

molecular target: HLA-C*06:02; assay: IEDB peptide-MHC binding, purified MHC/direct/fluorescence; filed as Kd, often an IC50 or EC50 that approximates it; bounds were set here for any values at or beyond the usual limits of such assays; details: source organism: Homo sapiens
quantity: Kd (nM)
// return numeric value only (unit: nM, not printed)

What the record says about YYWPRPRRY : Kd is 14
